- Tested Target: feline FcRn complex (FcRn-α subunit and β-microglobulin), biotin labeled (feline)
- Assay Procedure: SPR, pH 7.4
pKd: −log10 of the molar value.
Readout: pKd

feline IgG1a S252H (antibody, part only; not given: Variable domains, not shown: another chain or arm of the molecule) constant: ASTTAPSVFPLAPSCGTTSGATVALACLVLGYFPEPVTVSWNSGALTSGVHTFPAVLQASGLYSLSSMVTVPSSRWLSDTFTCNVAHPPSNTKVDKTVRKTDHPPGPKPCDCPKCPPPEMLGGPSIFIFPPKPKDTLHISRTPEVTCLVVDLGPDDSDVQITWFVDNTQVYTAKTSPREEQFNSTYRVVSVLPILHQDWLKGKEFKCKVNSKSLPSPIERTISKAKGQPHEPQVYVLPPAQEELSRNKVSVTCLIKSFHPPDIAVEWEITGQPEPENNYRTTPPQLDSDGTYFVYSKLSVDRSHWQRGNTYTCSVSHEALHSHHTQKSLTQSPGK ... 5.08
feline IgG1a S252H/S428M/S434W (antibody, part only; not given: Variable domains, not shown: another chain or arm of the molecule) constant: ASTTAPSVFPLAPSCGTTSGATVALACLVLGYFPEPVTVSWNSGALTSGVHTFPAVLQASGLYSLSSMVTVPSSRWLSDTFTCNVAHPPSNTKVDKTVRKTDHPPGPKPCDCPKCPPPEMLGGPSIFIFPPKPKDTLHISRTPEVTCLVVDLGPDDSDVQITWFVDNTQVYTAKTSPREEQFNSTYRVVSVLPILHQDWLKGKEFKCKVNSKSLPSPIERTISKAKGQPHEPQVYVLPPAQEELSRNKVSVTCLIKSFHPPDIAVEWEITGQPEPENNYRTTPPQLDSDGTYFVYSKLSVDRSHWQRGNTYTCSVMHEALHWHHTQKSLTQSPGK ... 7.68
feline IgG1a L314K/S434Y (antibody, part only; not given: Variable domains, not shown: another chain or arm of the molecule) constant: ASTTAPSVFPLAPSCGTTSGATVALACLVLGYFPEPVTVSWNSGALTSGVHTFPAVLQASGLYSLSSMVTVPSSRWLSDTFTCNVAHPPSNTKVDKTVRKTDHPPGPKPCDCPKCPPPEMLGGPSIFIFPPKPKDTLSISRTPEVTCLVVDLGPDDSDVQITWFVDNTQVYTAKTSPREEQFNSTYRVVSVLPILHQDWKKGKEFKCKVNSKSLPSPIERTISKAKGQPHEPQVYVLPPAQEELSRNKVSVTCLIKSFHPPDIAVEWEITGQPEPENNYRTTPPQLDSDGTYFVYSKLSVDRSHWQRGNTYTCSVSHEALHYHHTQKSLTQSPGK ... 5.13
feline IgG1a S252H/S428M/D312P (ID No. 221) (antibody, part only; not given: Variable domains, not shown: another chain or arm of the molecule) constant: ASTTAPSVFPLAPSCGTTSGATVALACLVLGYFPEPVTVSWNSGALTSGVHTFPAVLQASGLYSLSSMVTVPSSRWLSDTFTCNVAHPPSNTKVDKTVRKTDHPPGPKPCDCPKCPPPEMLGGPSIFIFPPKPKDTLHISRTPEVTCLVVDLGPDDSDVQITWFVDNTQVYTAKTSPREEQFNSTYRVVSVLPILHQPWLKGKEFKCKVNSKSLPSPIERTISKAKGQPHEPQVYVLPPAQEELSRNKVSVTCLIKSFHPPDIAVEWEITGQPEPENNYRTTPPQLDSDGTYFVYSKLSVDRSHWQRGNTYTCSVMHEALHSHHTQKSLTQSPGK ... 6.48
